Where do the numbers come from? From patent US10059703B2.

# System: Septoria tritici
# experiment-notes: Fungicidal activity: leaf blotch of wheat, one-day protectant and three-day curative tests on wheat plants
# Type: in vivo
# assay-context: Zymoseptoria tritici, 72 h; Three-Day Curative (3 DC), 100 ppm, wheat plants (variety Yuma); read-out: SEPTTR 100 PPM 3 DC (% Disease Control rating)
measure: pest or weed control at 100 ppm

For orientation, consider the following solved cases.
molecule="C/N=c1\\c(F)cn(S(=O)(=O)c2cccc(F)c2)c(=O)n1C [Compound F14]" reported_value="51 to 75%"
molecule="C/N=c1\\c(F)cn(S(=O)(=O)c2ccsc2)c(=O)n1C [Compound F17]" reported_value="76 to 100%"
molecule="Cc1cccc(S(=O)(=O)n2cc(F)/c(=N\\Cc3ccccc3F)n(C)c2=O)c1 [Compound F57]" reported_value="0 to 25%"
molecule="C/N=c1\\c(F)cn(S(=O)(=O)c2c(C)noc2C)c(=O)n1C [Compound F19]" reported_value="51 to 75%"
molecule="CC(C)c1ccc(S(=O)(=O)n2cc(F)/c(=N\\Cc3ccccc3F)n(C)c2=O)cc1 [Compound F56]" reported_value="0 to 25%"
molecule="COC(=O)/N=c1\\c(F)cn(S(=O)(=O)c2cc(Cl)sc2Cl)c(=O)n1C [Compound F51]" reported_value="0 to 25%"
molecule="C/N=c1\\c(F)cn(S(=O)(=O)c2cc(OC)ccc2OC)c(=O)n1C [Compound F11]" reported_value="76 to 100%"
molecule="CC(=O)/N=c1\\c(F)cn(S(=O)(=O)c2cc(C)c(Cl)cc2C)c(=O)n1C [Compound F35]" reported_value="26 to 50%"
molecule="C/N=c1\\c(F)cn(S(=O)(=O)c2ccccc2)c(=O)n1C [Compound F2]" reported_value="51 to 75%"
molecule="C/N=c1\\c(F)cn(S(=O)(=O)c2ccc(OC(F)(F)F)cc2)c(=O)n1C [Compound F6]" reported_value="76 to 100%"

For this molecule ( COc1ccc(S(=O)(=O)n2cc(F)/c(=N/C(C)=O)n(C)c2=O)cc1 [Compound F26] ), measured pest or weed control at 100 ppm is 76 to 100%

For this molecule ( C/N=c1\c(F)cn(S(=O)(=O)c2ccc(OC)cc2)c(=O)n1C [Compound F1] ), measured pest or weed control at 100 ppm is 51 to 75%

For this molecule ( COC(=O)/N=c1\c(F)cn(S(=O)(=O)c2ccccc2)c(=O)n1C [Compound F45] ), measured pest or weed control at 100 ppm is 0 to 25%

---

# Tested on: Septoria tritici
# experiment-notes: Fungicidal activity: leaf blotch of wheat, one-day protectant and three-day curative tests on wheat plants
# Format: in vivo
# assay-context: Zymoseptoria tritici, 72 h; Three-Day Curative (3 DC), 100 ppm, wheat plants (variety Yuma); read-out: SEPTTR 100 PPM 3 DC (% Disease Control rating)
measure: pest or weed control at 100 ppm

For orientation, consider the following solved cases.
molecule="C/N=c1\\c(F)cn(S(=O)(=O)c2ccc(Cl)cc2)c(=O)n1C [Compound F5]" reported_value="76 to 100%"
molecule="C/N=c1\\c(F)cn(S(=O)(=O)c2ccc(C)c(Cl)c2)c(=O)n1C [Compound F10]" reported_value="51 to 75%"
molecule="C/N=c1\\c(F)cn(S(=O)(=O)c2cccc(C#N)c2)c(=O)n1C [Compound F7]" reported_value="51 to 75%"

Attention now turns to another entry.
Entry Cc1ccc(S(=O)(=O)n2cc(F)/c(=N\Cc3ccccc3F)n(C)c2=O)cc1 [Compound F54] : pest or weed control at 100 ppm on Septoria tritici = 0 to 25%
